Test system: L1210
Experiment: Cytotoxicity against mouse L1210 cells
Format: functional, cell-based
Quick rule for you: IC50 under 600 nM gets Condition met, anything else gets Condition not met.

Answered cases to consult:
{"INPUT_SMILES": "CCOC(=O)[C@H](Cc1ccccc1)NC(=O)/C=C\\C(=O)N1C/C(=C\\c2ccc([N+](=O)[O-])cc2)C(=O)/C(=C/c2ccc([N+](=O)[O-])cc2)C1", "CAT": "Condition met"}
{"INPUT_SMILES": "CCOC(=O)[C@@H](NC(=O)/C=C\\C(=O)N1C/C(=C\\c2ccc([N+](=O)[O-])cc2)C(=O)/C(=C/c2ccc([N+](=O)[O-])cc2)C1)C(C)C", "CAT": "Condition met"}

Exercise: # check: IC50 < 600 nM for "CCOC(=O)[C@H](Cc1ccc(O)cc1)NC(=O)/C=C\C(=O)N1C/C(=C\c2ccccc2)C(=O)/C(=C/c2ccccc2)C1"
Solution: Condition not met

Exercise: # check: IC50 < 600 nM for "CCOC(=O)[C@H](CCSC)NC(=O)/C=C\C(=O)N1C/C(=C\c2ccc([N+](=O)[O-])cc2)C(=O)/C(=C/c2ccc([N+](=O)[O-])cc2)C1"
Solution: Condition met

Exercise: # check: IC50 < 600 nM for "CCOC(=O)[C@H](Cc1c[nH]c2ccccc12)NC(=O)/C=C\C(=O)N1C/C(=C\c2ccc([N+](=O)[O-])cc2)C(=O)/C(=C/c2ccc([N+](=O)[O-])cc2)C1"
Solution: Condition not met

Exercise: # check: IC50 < 600 nM for "O=C1/C(=C/c2ccc([N+](=O)[O-])cc2)CNC/C1=C\c1ccc([N+](=O)[O-])cc1"
Solution: Condition not met

====

Molecular target: DNA topoisomerase 2-alpha (Homo sapiens) (UniProt P11388)
Sequence (P11388 whole entry): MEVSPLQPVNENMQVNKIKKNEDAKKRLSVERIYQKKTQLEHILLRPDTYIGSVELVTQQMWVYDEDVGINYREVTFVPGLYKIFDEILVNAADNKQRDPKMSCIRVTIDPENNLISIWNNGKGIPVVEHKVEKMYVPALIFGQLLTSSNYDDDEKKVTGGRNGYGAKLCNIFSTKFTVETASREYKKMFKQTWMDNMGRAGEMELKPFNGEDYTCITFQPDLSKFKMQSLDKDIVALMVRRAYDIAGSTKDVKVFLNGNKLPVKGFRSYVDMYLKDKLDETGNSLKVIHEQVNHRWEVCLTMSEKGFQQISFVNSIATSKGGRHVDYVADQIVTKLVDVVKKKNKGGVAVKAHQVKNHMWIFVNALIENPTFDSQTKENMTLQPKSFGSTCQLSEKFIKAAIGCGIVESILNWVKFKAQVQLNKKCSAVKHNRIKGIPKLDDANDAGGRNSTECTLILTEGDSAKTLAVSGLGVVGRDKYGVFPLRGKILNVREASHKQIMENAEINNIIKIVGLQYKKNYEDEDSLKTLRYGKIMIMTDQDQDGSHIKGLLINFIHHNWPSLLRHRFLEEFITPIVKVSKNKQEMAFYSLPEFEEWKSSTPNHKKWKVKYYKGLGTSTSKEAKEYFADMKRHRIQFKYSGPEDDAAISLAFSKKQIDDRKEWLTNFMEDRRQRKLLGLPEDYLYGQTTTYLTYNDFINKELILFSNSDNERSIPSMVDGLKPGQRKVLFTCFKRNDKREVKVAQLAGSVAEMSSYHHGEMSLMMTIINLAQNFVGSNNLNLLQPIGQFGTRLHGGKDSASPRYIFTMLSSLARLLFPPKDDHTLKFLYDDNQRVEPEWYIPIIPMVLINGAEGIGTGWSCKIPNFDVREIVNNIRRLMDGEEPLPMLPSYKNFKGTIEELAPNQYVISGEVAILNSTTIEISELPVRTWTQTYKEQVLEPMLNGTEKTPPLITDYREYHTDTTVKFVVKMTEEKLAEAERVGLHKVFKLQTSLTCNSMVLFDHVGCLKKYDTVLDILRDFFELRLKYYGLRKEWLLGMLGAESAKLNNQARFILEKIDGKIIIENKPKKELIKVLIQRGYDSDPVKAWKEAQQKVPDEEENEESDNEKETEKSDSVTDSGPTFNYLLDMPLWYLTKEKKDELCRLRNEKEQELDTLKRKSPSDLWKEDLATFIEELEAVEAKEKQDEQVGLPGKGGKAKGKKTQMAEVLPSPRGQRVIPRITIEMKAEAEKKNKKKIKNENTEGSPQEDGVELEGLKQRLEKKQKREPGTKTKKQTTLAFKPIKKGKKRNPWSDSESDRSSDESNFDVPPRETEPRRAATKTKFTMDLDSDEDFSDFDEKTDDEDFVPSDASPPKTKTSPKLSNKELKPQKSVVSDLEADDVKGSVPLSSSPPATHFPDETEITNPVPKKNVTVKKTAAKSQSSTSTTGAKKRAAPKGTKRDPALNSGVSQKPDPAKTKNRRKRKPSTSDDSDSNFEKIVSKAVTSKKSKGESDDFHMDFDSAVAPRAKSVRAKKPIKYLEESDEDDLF
Experiment: Inhibition of human DNA topoisomerase 2alpha-mediated relaxation of supercoiled pRYG DNA at 10 uM after 30 mins by […]
The source made the active and inactive calls. No cut-off for these calls is given here.
Your response should consist of one outcome taken from active, inactive

Exercise: For this molecule, state the assay outcome: "CCOC(=O)[C@H](CC(C)C)NC(=O)/C=C\C(=O)N1C/C(=C\c2ccc([N+](=O)[O-])cc2)C(=O)/C(=C/c2ccc([N+](=O)[O-])cc2)C1"
Solution: inactive

Exercise: For this molecule, state the assay outcome: "CCOC(=O)[C@H](CC(C)C)NC(=O)/C=C\C(=O)N1C/C(=C\c2ccccc2)C(=O)/C(=C/c2ccccc2)C1"
Solution: inactive

Exercise: For this molecule, state the assay outcome: "CCOC(=O)[C@H](Cc1ccc(O)cc1)NC(=O)/C=C\C(=O)N1C/C(=C\c2ccc([N+](=O)[O-])cc2)C(=O)/C(=C/c2ccc([N+](=O)[O-])cc2)C1"
Solution: inactive

Exercise: For this molecule, state the assay outcome: "CCOC(=O)[C@H](Cc1ccc(O)cc1)NC(=O)/C=C\C(=O)N1C/C(=C\c2ccccc2)C(=O)/C(=C/c2ccccc2)C1"
Solution: inactive

Exercise: For this molecule, state the assay outcome: "CCOC(=O)CNC(=O)/C=C\C(=O)N1C/C(=C\c2ccc([N+](=O)[O-])cc2)C(=O)/C(=C/c2ccc([N+](=O)[O-])cc2)C1"
Solution: active

Exercise: For this molecule, state the assay outcome: "CCOC(=O)[C@H](Cc1c[nH]c2ccccc12)NC(=O)/C=C\C(=O)N1C/C(=C\c2ccc([N+](=O)[O-])cc2)C(=O)/C(=C/c2ccc([N+](=O)[O-])cc2)C1"
Solution: active

====

Target: DNA topoisomerase 2-alpha (Homo sapiens)
Test: Inhibition of human DNA topoisomerase 2alpha-mediated relaxation of supercoiled pRYG DNA at 100 uM after 30 mins by agarose gel electrophoresis
Active and inactive are the calls of the source. No cut-off for these calls is given here.
Your response should consist of one outcome taken from t = active, f = inactive

Answered cases to consult:
{"INPUT_SMILES": "CCOC(=O)[C@H](Cc1ccccc1)NC(=O)/C=C\\C(=O)N1C/C(=C\\c2ccc([N+](=O)[O-])cc2)C(=O)/C(=C/c2ccc([N+](=O)[O-])cc2)C1", "ASSAY_SYSTEM": "DNA topoisomerase 2-alpha (Homo sapiens)", "CAT": "t"}
{"INPUT_SMILES": "CCOC(=O)CNC(=O)/C=C\\C(=O)N1C/C(=C\\c2ccc([N+](=O)[O-])cc2)C(=O)/C(=C/c2ccc([N+](=O)[O-])cc2)C1", "ASSAY_SYSTEM": "DNA topoisomerase 2-alpha (Homo sapiens)", "CAT": "t"}
{"INPUT_SMILES": "CCOC(=O)[C@@H](NC(=O)/C=C\\C(=O)N1C/C(=C\\c2ccc([N+](=O)[O-])cc2)C(=O)/C(=C/c2ccc([N+](=O)[O-])cc2)C1)C(C)C", "ASSAY_SYSTEM": "DNA topoisomerase 2-alpha (Homo sapiens)", "CAT": "t"}
{"INPUT_SMILES": "CCOC(=O)[C@H](CCSC)NC(=O)/C=C\\C(=O)N1C/C(=C\\c2ccc([N+](=O)[O-])cc2)C(=O)/C(=C/c2ccc([N+](=O)[O-])cc2)C1", "ASSAY_SYSTEM": "DNA topoisomerase 2-alpha (Homo sapiens)", "CAT": "t"}
{"INPUT_SMILES": "CCOC(=O)[C@H](CC(C)C)NC(=O)/C=C\\C(=O)N1C/C(=C\\c2ccccc2)C(=O)/C(=C/c2ccccc2)C1", "ASSAY_SYSTEM": "DNA topoisomerase 2-alpha (Homo sapiens)", "CAT": "f"}

Exercise: For this molecule, state the assay outcome: "CCOC(=O)[C@H](Cc1ccc(O)cc1)NC(=O)/C=C\C(=O)N1C/C(=C\c2ccccc2)C(=O)/C(=C/c2ccccc2)C1"
Solution: t

Exercise: For this molecule, state the assay outcome: "CCOC(=O)[C@H](C)NC(=O)/C=C\C(=O)N1C/C(=C\c2ccc([N+](=O)[O-])cc2)C(=O)/C(=C/c2ccc([N+](=O)[O-])cc2)C1"
Solution: t

Exercise: For this molecule, state the assay outcome: "CCOC(=O)[C@H](Cc1ccc(O)cc1)NC(=O)/C=C\C(=O)N1C/C(=C\c2ccc([N+](=O)[O-])cc2)C(=O)/C(=C/c2ccc([N+](=O)[O-])cc2)C1"
Solution: t

Exercise: For this molecule, state the assay outcome: "CCOC(=O)[C@H](CC(C)C)NC(=O)/C=C\C(=O)N1C/C(=C\c2ccc([N+](=O)[O-])cc2)C(=O)/C(=C/c2ccc([N+](=O)[O-])cc2)C1"
Solution: t

Exercise: For this molecule, state the assay outcome: "CCOC(=O)[C@H](Cc1c[nH]c2ccccc12)NC(=O)/C=C\C(=O)N1C/C(=C\c2ccc([N+](=O)[O-])cc2)C(=O)/C(=C/c2ccc([N+](=O)[O-])cc2)C1"
Solution: t

Exercise: For this molecule, state the assay outcome: "CCOC(=O)CNC(=O)/C=C\C(=O)N1C/C(=C\c2ccccc2)C(=O)/C(=C/c2ccccc2)C1"
Solution: f

====

Target: DNA topoisomerase 2-alpha (Homo sapiens)
Experiment: Inhibition of human DNA topoisomerase 2alpha-mediated relaxation of supercoiled pRYG DNA at 10 uM after 30 mins by […]
Calls of active or inactive are those of the source. The rule behind the calls is not given here.
Your response should consist of one outcome taken from active, inactive

Answered cases to consult:
{"INPUT_SMILES": "CCOC(=O)[C@@H](NC(=O)/C=C\\C(=O)N1C/C(=C\\c2ccc([N+](=O)[O-])cc2)C(=O)/C(=C/c2ccc([N+](=O)[O-])cc2)C1)C(C)C", "CAT": "inactive"}
{"INPUT_SMILES": "CCOC(=O)CNC(=O)/C=C\\C(=O)N1C/C(=C\\c2ccccc2)C(=O)/C(=C/c2ccccc2)C1", "CAT": "inactive"}
{"INPUT_SMILES": "CCOC(=O)[C@H](CCSC)NC(=O)/C=C\\C(=O)N1C/C(=C\\c2ccc([N+](=O)[O-])cc2)C(=O)/C(=C/c2ccc([N+](=O)[O-])cc2)C1", "CAT": "active"}
{"INPUT_SMILES": "CCOC(=O)[C@H](C)NC(=O)/C=C\\C(=O)N1C/C(=C\\c2ccc([N+](=O)[O-])cc2)C(=O)/C(=C/c2ccc([N+](=O)[O-])cc2)C1", "CAT": "inactive"}

Consider the record given below.
Exercise: For this molecule, state the assay outcome: "CCOC(=O)[C@H](Cc1ccccc1)NC(=O)/C=C\C(=O)N1C/C(=C\c2ccc([N+](=O)[O-])cc2)C(=O)/C(=C/c2ccc([N+](=O)[O-])cc2)C1"
Solution: active
